- conditions: rat, in vivo
recorded metric: % Enhancement in bioavailability, Carum carvi + Zingiber officinale, Frac 1. (Cc) (%)
Numbers only, in %.

Before answering, review these 2 worked examples.
molecule="NCCCC[C@H](N)C(=O)O [Lysine]" readout_number=43
molecule="C[C@@H]1O[C@@H](OC[C@H]2O[C@@H](Oc3c(-c4ccc(O)c(O)c4)oc4cc(O)cc(O)c4c3=O)[C@H](O)[C@@H](O)[C@@H]2O)[C@H](O)[C@H](O)[C@H]1O [Rutin]" readout_number=42

Enquiry: Which % Enhancement in bioavailability, Carum carvi + Zingiber officinale, Frac 1. (Cc) is reported for this molecule? COc1cc(/C=C/C(=O)CC(=O)/C=C/c2ccc(O)c(OC)c2)ccc1O [Curcumin]
Return: 52

====

- conditions: rat, in vivo
Could you label it True if measured % Enhancement in bioavailability, Carum carvi + Zingiber officinale, Extr. (Cc) is 40% or higher, and False otherwise?

These solved cases illustrate the format of a correct answer.
compound_string=C[C@@H]1O[C@@H](OC[C@H]2O[C@@H](Oc3c(-c4ccc(O)c(O)c4)oc4cc(O)cc(O)c4c3=O)[C@H](O)[C@@H](O)[C@@H]2O)[C@H](O)[C@H](O)[C@H]1O answer_label=False
compound_string=CC(C)C[C@H](N)C(=O)O answer_label=False
compound_string=CC[C@H](C)[C@H](N)C(=O)O answer_label=True
compound_string=COc1cc(/C=C/C(=O)CC(=O)/C=C/c2ccc(O)c(OC)c2)ccc1O answer_label=True

Enquiry: Does % Enhancement in bioavailability, Carum carvi + Zingiber officinale, Extr. (Cc) meet or surpass 40% for CC(C)[C@H](N)C(=O)O ?
Return: False

====

- conditions: rat, in vivo, 35 mg/kg
recorded metric: % Enhancement in bioavailability, BE from Zingiber officinale

molecule="Nc1nc2ncc(CNc3ccc(C(=O)N[C@@H](CCC(=O)O)C(=O)O)cc3)nc2c(=O)[nH]1 [Folio Acid]" result=nil
molecule="NC(=O)c1cnccn1 [Pyrazinamide]" result=Nil
molecule="CC[C@@H](CO)NCCN[C@@H](CC)CO [Ethambutol]" result=Nil
molecule="[Se] [Selenium]" result=Nil

Parameters: items (list). Returns: % Enhancement in bioavailability, BE from Zingiber officinale for each item.
1. CCn1cc(C(=O)O)c(=O)c2cc(F)c(N3CCNCC3)cc21 [Norfloxacin]
2. NCC[C@H](O)C(=O)N[C@@H]1C[C@H](N)[C@@H](O[C@H]2O[C@H](CN)[C@@H](O)[C@H](O)[C@H]2O)[C@H](O)[C@H]1O[C@H]1O[C@H](CO)[C@@H](O)[C@H](N)[C@H]1O [Amikacin]

Return:
1. Nil
2. Nil

Okay, here is my list. What is % Enhancement in bioavailability, BE from Zingiber officinale for each of these?
1. NNC(=O)c1ccncc1 [Isoniazid]
2. O=C1O[C@H]([C@@H](O)CO)C(O)=C1O [Vit C]
3. COc1ccc2[nH]c([S+]([O-])Cc3ncc(C)c(OC)c3C)nc2c1 (centres unmarked) [Omeprazole]
4. [Cu] [Copper]

Return:
Nil
Nil
nil
nil

Enquiry: I am curious: what % Enhancement in bioavailability, BE from Zingiber officinale value has been reported for C=CC1=C(C(=O)O)N2C(=O)[C@@H](NC(=O)/C(=N\OCC(=O)O)c3csc(N)n3)[C@H]2SC1 [Cefixime] ?
Return: Nil
